Consider the following molecules and their measured logD readings.
# ASSAY DETAILS: method code SF, from DOI: 10.1016/0223-5234(90)90141-o
# CONDITION SET: pH 7.4
When you answer, write just the number.

MOLECULE	MEAS VALUE
COc1cc(S(C)=O)ccc1-c1nc2cnccc2n1C (stereo unspecified)	2.15
COc1cc(S(C)=O)ccc1-c1nc2cnccc2[nH]1 (stereo unspecified)	1.23
COc1ccc(-c2nc3ccncc3n2C)c(OC)c1	2.68
COc1ccc(-c2nc3cnccc3o2)c(OC)c1	2.42
COc1cc(S(C)=O)ccc1-c1nc2nnccc2[nH]1 (stereo unspecified)	0.23
COc1cc(S(C)=O)ccc1-c1nc2cnncc2[nH]1 (stereo unspecified)	0.39
COc1cc(S(C)=O)ccc1-c1nc2cnccc2s1 (stereo unspecified)	2.21
COc1cccc(OC)c1-c1nc2cnccc2[nH]1	1.66

query: Read the entry `COc1ccc(-c2nc3cnccc3n2C)c(OC)c1` and write its reported logD.
result: 2.66

query: Read the entry COc1cc(S(C)=O)ccc1-c1nc2ncncc2[nH]1 (stereo unspecified) and write its reported logD.
result: 0.53

query: Read the entry COc1cc(S(C)=O)ccc1-c1nc2nccnc2[nH]1 (stereo unspecified) and write its reported logD.
result: 0.66
